Exercise: for every item that follows, state its recorded Neut IC50 (ug/ml) subtype B.
# target desc: RSV F protein of subtype B strain 18537, on virus (respiratory syncytial virus subtype B …, UniProt P13843 26-574)
# Sequence (P13843 26-574): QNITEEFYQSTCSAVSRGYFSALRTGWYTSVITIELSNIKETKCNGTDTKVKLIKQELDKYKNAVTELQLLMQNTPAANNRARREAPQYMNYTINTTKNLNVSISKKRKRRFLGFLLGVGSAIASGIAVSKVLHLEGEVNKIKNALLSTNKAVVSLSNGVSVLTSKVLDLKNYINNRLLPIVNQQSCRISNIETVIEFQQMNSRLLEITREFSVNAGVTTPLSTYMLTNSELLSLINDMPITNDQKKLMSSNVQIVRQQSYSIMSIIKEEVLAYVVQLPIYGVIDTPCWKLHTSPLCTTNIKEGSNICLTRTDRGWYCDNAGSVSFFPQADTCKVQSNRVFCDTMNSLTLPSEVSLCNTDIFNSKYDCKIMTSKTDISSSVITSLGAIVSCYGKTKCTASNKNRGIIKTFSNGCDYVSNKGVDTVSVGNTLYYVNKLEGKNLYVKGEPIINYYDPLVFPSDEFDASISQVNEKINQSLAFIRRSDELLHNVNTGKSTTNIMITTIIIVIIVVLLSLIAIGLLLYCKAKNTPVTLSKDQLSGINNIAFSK
# method summary: cell-based or functional assay

# example entries with known answers
input: For the binder ADI-15658 (antibody, V domains shown, IgG) VH: EVQLVESGGGLVQPGRSLRLSCVTSGFGFDDYAMHWVRQAPGKGLEWVSGIGWNSGGIGYADSVKGRFSISRDNAKNSLYLQMNSLRPEDTAFYYCVKDGTPIAVAGYFEYWGQGTLVTVSS VL: SYELTQPPSASGTPGQRVTISCSGGRSNIGNNYVYWYQQLPGTAPKLLIYRHDQRPSGVPDRFSGSKSGTSASLAINGLRSEDEADYFCAVWDDSLSCYVFGAGTKLTVL , give its measured Neut IC50 (ug/ml) subtype B value.
output: > 10 µg/mL

input: For the binder ADI-15612 (antibody, V domains shown, IgG) VH: EVQLLESGGDLVQPGGSLRLSCAASGFPFSSHSMNWVRQAPGKGLEWISYISGGSDTIQYADSVKGRFTISRDNVKNSLYLQMNSLRAEDTAVYYCARDQYIWNYVEPLDYWGQGTLVTVSS VL: DIQMTQSPSSLSASVGDRVTITCRASQDISYYLGWYQQKAGKAPKLLIYAVSNLQTGVPSRFSGSGSGTDFTLTISSLQPEDFATYYCLQDHTCPWTFGQGTKVEIK , give its measured Neut IC50 (ug/ml) subtype B value.
output: 0.164 µg/mL

Others:
input: For the binder ADI-15609 (antibody, V domains shown, IgG) VH: EVQLLESGGGVVQPGRSLKLSCAASGFSFTTDVMHWIRQAPGKGLEWVAVISTDGANSYYAESVKGRFTISRDNSKNTLFLQMSSLRAEDTAVYYCASQGYHYVNMADVGVPSFDHWGQGTLVTVSS VL: ETTLTQSPSSLSASVGDRVTITCRARRSIDNYLNWYQHKPGTAPKLLIYAVSSLPSGVPSRFSGSGSGADFTLTISSLQPEDLATYYCQQSYMTPPTFGQGTKLEIK , give its measured Neut IC50 (ug/ml) subtype B value.
output: > 10 µg/mL
